- protocol-description: NCI Yeast Anticancer Drug Screen. Data for the mec2-1 strain (AID 157)
- condition-info: S. cerevisiae mec2-1 strain, at 50.0 µM, hits give high values
The panel holds about 79,000 compounds, 15% with a hit somewhere; the sample as a whole holds those more often. Activity calls are given as the source filed them. Rule as the data show it: active = growth inhibition above about 70%; inactive = the rest.
quantity-name: growth inhibition

For O=C1C=C(c2ccccc2)C(O)(c2ccccc2)/C1=C/C=C/c1ccccc1 (stereo not given) the compound record lists growth inhibition as -14.1% (inactive)

Per the record, `Cc1ccc(NC2=CC(=O)C(=O)c3ccccc32)cc1C` has growth inhibition of 13.1% (inactive)

The compound listed as C#CC(NC(C)(C)CC(C)(C)C)C(C)C (stereo not given) has a reported growth inhibition of 4.25% (inactive)

`C[Si](C)(CCCNCCN)O[Si](C)(C)CCCNCCN` yielded growth inhibition of -24.1% (inactive)

The compound listed as `O=C(NC(=S)Nc1cccc2ccccc12)c1ccccc1F` shows growth inhibition equal to 15.1% (inactive)

* * *

- protocol-description: NCI Yeast Anticancer Drug Screen. Data for the bub3 strain (AID 167)
- condition-info: S. cerevisiae bub3 mutant strain, at 50.0 µM, hits give high values
About 79,000 compounds went through this panel and 15% of them were active in at least one assay; those are over-represented in the sample as a whole. Calls of active or inactive are those of the source. No stated cut-off is given here; in the data, active means growth inhibition above about 70%; inactive means the rest. Where a SMILES comes first, the peptide text is derived from it. [ ]: non-standard residue; d: D form. The star is where a group is joined. Cbz = O=C(OCc1ccccc1)*; Nva = CCC[CH](N)C(=O)O
Task for the reader: assign each of the following molecules its reported growth inhibition.

Note to self: growth inhibition recorded for N#CC(NC12CC3CC(CC(C3)C1)C2)c1ccccc1C(F)(F)F (centres undefined) was -30.1% (inactive)

// growth inhibition value for `O=C1COCC(=O)N1` : 0.05% (inactive)

// field: growth inhibition; key: `Cc1cccc(NC(=O)Nc2cccc(C)c2)c1` ; value = -22.1% (inactive)

`CC(C)CNC(=S)N/N=C/C=C/c1ccc(C(C)C)cc1` yielded growth inhibition of 53.9% (inactive)

Lab book: growth inhibition of C#[N+]CCOP(=O)(OCC1OC(n2cc(C)c(=O)[nH]c2=O)CC1N=[N+]=[N-])O[C@H]1CC[C@@]2(C)C(=CC[C@H]3[C@@H]4CC[C@H](C(C)CCCC(C)C)[C@@]4(C)CC[C@@H]32)C1 (some centres undefined) noted as -0.35% (inactive)

# molecule `COC(=O)CCCCC#CCCCCC(=O)OC` ; its growth inhibition = 12.2% (inactive)

The molecule O=C1CC2CC1C1CCCC21 (centres undefined) showed growth inhibition equal to -31.4% (inactive)

The recorded growth inhibition for entry `C1=Nc2ccccc2/C1=C/c1c[nH]c2ccccc12` equals 1.05% (inactive)

// growth inhibition value for COC1CC(NC(C)=O)C2OC(c3ccccc3)OCC2O1 (centres undefined) : -3.45% (inactive)

# molecule `O=C(Nc1c(Cl)cccc1Cl)Oc1cccnc1` ; its growth inhibition = -23.1% (inactive)

Form field growth inhibition, entry CC1=CC2=NCC(O)CN2C=C1 (centres undefined) : 14.4% (inactive)

Value of growth inhibition reported for the molecule CC(=O)OC1OCCCC1Cl (centres undefined) is -30.8% (inactive)

The molecule listed as CCC(O)(c1ccc(OC)cc1)C(c1ccccc1)c1ccccn1 (centres undefined) shows growth inhibition equal to 2.8% (inactive)

Field growth inhibition (entry `O=[N+]([O-])c1ccc(N/N=C2\C=CCCC2)c([N+](=O)[O-])c1` ) reads -12.6% (inactive)

Value of growth inhibition reported for the molecule `CC(C)N(C(=O)/C=C/C(=O)N(C(C)C)C(C)C)C(C)C` is 18.8% (inactive)

// sample `CCCCNC(=O)Nc1nc2ccccc2s1` , its growth inhibition was -3% (inactive)

Measured growth inhibition of `COc1ccc2c(c1OC)C(=O)C2` : -16.8% (inactive)

The molecule identified as `CCCCS(=O)(=O)N(CCC)CCC` registered its growth inhibition at -3.95% (inactive)

# growth inhibition of COC(=O)C1CN(c2ccccc2)CCC1=O (centres undefined) = -10.3% (inactive)

GET /value?item= `O=C(COc1cc(Cl)c(Cl)cc1Cl)Nc1ccc(N=Nc2ccccc2)cc1` &field=growth inhibition returns 2.75% (inactive)

The molecule listed as CC(=O)c1cc2c(cc1C)C(C(C)C)CCC2(C)C (centres undefined) has a reported growth inhibition of 41.7% (inactive)

Record summary for COC1CCCCC(=NNC(N)=O)CCCC1 (centres undefined) : reported growth inhibition = -7.15% (inactive)

Per the record, `C=CCOC(=O)CCCCC(=O)OCC=C` has growth inhibition of 19.9% (inactive)

Entry `COc1cc(O)c(C(C)=O)c2c1C=CC(C)(C)O2` , growth inhibition reported as -13.8% (inactive)

# growth inhibition of `OCCN(CCO)c1ccc2c(c1)Cc1cc(Br)ccc1-2` = 22.5% (inactive)

Just so you know, measured growth inhibition for CCCC(NC(=O)OCc1ccccc1)C(=O)NC(Cc1ccc(O)cc1)C(=O)O (centres undefined) (Cbz-[Nva]-Tyr-OH; configuration not given here) came out at -16.4% (inactive)

For this molecule ( `N#Cc1nc(C2CCC2)oc1N` ), measured growth inhibition is 1.55% (inactive)

The molecule `Cc1ccc(C(C(=O)O)c2ccc(C)cc2)cc1` showed growth inhibition equal to 22.1% (inactive)

// field: growth inhibition; key: `COC(=O)CC1=CCCc2ccccc21` ; value = 0.35% (inactive)

Form field growth inhibition, entry `O=[N+]([O-])c1ccc(S(=O)(=O)c2ccc(N=CN3CCCC3)cc2)cc1` : 18% (inactive)

For `CCCCCCCCCCP(=O)(O)CCCCCCCCCC` the molecule record lists growth inhibition as 21.7% (inactive)

Field growth inhibition (entry NC(=O)NC1CC1c1ccccc1 (centres undefined) ) reads -10.3% (inactive)

// growth inhibition value for `Nc1cc(Cl)c(F)cc1Cl` : 1.15% (inactive)

For NC(=O)NC(c1ccc(O)cc1)c1cc2c(cc1O)OCO2 (centres undefined) the molecule record lists growth inhibition as 5.75% (inactive)

The measured growth inhibition associated with `CC(C)NCc1ccccc1Sc1ccccc1CNC(C)C` reads 11.4% (inactive)

Record O=C1OC(C(Cl)(Cl)Cl)Nc2ccccc21 (centres undefined) , field growth inhibition: 19.4% (inactive)

Summary for this molecule, `Cc1cc(=O)[nH]c(-n2[nH]c(C)c(CCO)c2=O)n1` : growth inhibition is -5.9% (inactive)

The measured growth inhibition associated with `CN(C)c1ccccc1CC(=O)Nc1ccccc1` reads 1.9% (inactive)

The recorded growth inhibition for `O=C(/C=C/c1cc2ccccc2o1)N1CCN(c2ccccn2)CC1` is 17.9% (inactive)

* * *

Provide the reported growth inhibition of each item.
- protocol-description: NCI Yeast Anticancer Drug Screen. Data for the bub3 strain (AID 167)
- condition-info: S. cerevisiae bub3 mutant strain, at 50.0 µM, hits give high values
Compounds without any hit were thinned out: in the full panel of roughly 79,000, 15% have a hit.
Enter your answer as a number in %; do not include the unit.

Just so you know, measured growth inhibition for `O=Cc1cccc2ccc3cccc(C(=O)O)c3c12` came out at 30.1

Recorded growth inhibition (compound `O=C1OC(c2ccccc2)=N/C1=C\c1cccc2ccccc12` ): -16.4

Per the record, `O=C(O)C(CS)(c1ccccc1)c1ccccc1` has growth inhibition of -2.85

Just so you know, measured growth inhibition for COC(=O)C1O[C@H]1c1cccc[n+]1[O-] (mixture of isomers) came out at -8.2

* * *

Consider the following molecules; for each one, report its growth inhibition.
- protocol-description: NCI Yeast Anticancer Drug Screen. Data for the cln2 rad14 strain (AID 165);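 also: 0% = growth equal to vehicle treated cultures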
- condition-info: S. cerevisiae cln2 rad14 strain, at 50.0 µM, hits give high values
- Description: Growth inhibition of yeast strains with defined genetic alterations is measured as a screen for potential anti-cancer activity. Selected strains with alterations in DNA damage repair or cell cycle control were exposed to compounds and growth inhibition was measured relative to vehicle treated controls. The strain used in this assay is cln2 rad14
Compounds without any hit were thinned out: in the full panel of roughly 79,000, 15% have a hit.
Provide the reading as a plain figure in %.

`CC[N+](C)(CC)CCOC(=O)c1ccccc1Oc1ccc(C)cc1` has a reported growth inhibition of -11.8

growth inhibition reading for `CC(=O)NS(=O)(=O)c1ccc(NC(=O)COC(=O)c2cccc3c(=O)c4ccccc4[nH]c23)cc1` : 7.1

growth inhibition measured on NC(=O)NC1CC1c1ccccc1 (stereo not drawn) = 22.1

In plain terms, `C/C=C/C(=O)OCCc1ccccc1` has a documented growth inhibition of -5.5

// growth inhibition lookup, molecule = COc1ccc(N2C(=O)C3C=CC(n4[nH]c(=O)n(Cc5ccccc5)c4=O)CC3C2=O)cc1 (stereo not drawn) , result: -20.9

// `O=C1NC(=O)c2ccc(S)c3cccc1c23` : growth inhibition value = -41.1

Record summary for CC(=O)OC12C(C)=C(C)C(=O)N1c1ccccc1N2C(C)=O (stereo not drawn) : reported growth inhibition = 15.9

Form: molecule = CC(C)(C)OC(=O)NC1CCCCC1NC(=O)C(=O)NC1CCCCC1NC(=O)OC(C)(C)C (stereo not drawn) ; growth inhibition = 4.2

The molecule CC(NC(=O)c1ccc(C(C[N+](=O)[O-])SCCC(=O)O)cc1)C(=O)O (stereo not drawn) showed growth inhibition equal to 5.55

Form: molecule = `Cc1cc(N(CCC#N)CCC#N)ccc1/C=C1/N=C(c2ccccc2)N(N)C1=O` ; growth inhibition = 2.7

Item: `CCOC(=O)c1ccc(Nc2nc3cc(C(F)(F)F)ccc3nc2C(=O)OCC)cc1` | growth inhibition: -19.4

// recorded growth inhibition for `COc1cccc2cc[nH]c12` : 10.8

// growth inhibition value for `CC(C)c1ccc(/C(O)=C/C(=O)C(=O)/C=C(/O)c2ccc(C(C)C)cc2)cc1` : 9.6

Entry CCOc1cn(C2OC(CO)C(O)C2O)c(=O)[nH]c1=O (stereo not drawn) , growth inhibition reported as 3.55

`CC(C)(C)NC(=O)NCCCCCCNC(=O)NC(C)(C)C` has a reported growth inhibition of -27.9

Data point: `CCC/C=C/C=C\C(=O)O[C@@H]1[C@@H](C)[C@]2(O)[C@@H]3C=C(C)C(=O)[C@H]3CC(COC(C)=O)=C[C@H]2[C@@H]2C(C)(C)[C@]12OC(C)=O` ; growth inhibition = 11.9

Briefly, growth inhibition measured for `CN(C)c1nc(Cl)nc2nc(Cl)[nH]c12` : 0.8

Looking up `CC(=O)Oc1ccc2c(=O)c(C(C)=O)coc2c1` , I see its growth inhibition listed as 14.4

Form field growth inhibition, entry `O=Cc1cc2c(cc1Br)OCO2` : 10.2

Form field growth inhibition, entry `CC1(C)S/C(=C\c2ccccc2)c2nc3ccccc3c(=O)n21` : 2.3

Value of growth inhibition reported for the molecule `Cc1cccc(C)c1NC(=O)OC(C)C` is -32.5

# growth inhibition of O=C(NC(CO)CO)c1ccc2cc(C(=O)N3CC(CCl)c4ccc([N+](=O)[O-])cc43)[nH]c2c1 (stereo not drawn) = -7.95

Recorded growth inhibition (molecule `CC(C)(C)c1ccc(C(C)(C)C)c(=O)[nH]1` ): -41.5
